This collection of values is drawn from ChEMBL document CHEMBL1144645.

Molecular target: Receptor tyrosine-protein kinase erbB-2 (Homo sapiens, UniProt P04626)
Sequence (P04626 whole entry): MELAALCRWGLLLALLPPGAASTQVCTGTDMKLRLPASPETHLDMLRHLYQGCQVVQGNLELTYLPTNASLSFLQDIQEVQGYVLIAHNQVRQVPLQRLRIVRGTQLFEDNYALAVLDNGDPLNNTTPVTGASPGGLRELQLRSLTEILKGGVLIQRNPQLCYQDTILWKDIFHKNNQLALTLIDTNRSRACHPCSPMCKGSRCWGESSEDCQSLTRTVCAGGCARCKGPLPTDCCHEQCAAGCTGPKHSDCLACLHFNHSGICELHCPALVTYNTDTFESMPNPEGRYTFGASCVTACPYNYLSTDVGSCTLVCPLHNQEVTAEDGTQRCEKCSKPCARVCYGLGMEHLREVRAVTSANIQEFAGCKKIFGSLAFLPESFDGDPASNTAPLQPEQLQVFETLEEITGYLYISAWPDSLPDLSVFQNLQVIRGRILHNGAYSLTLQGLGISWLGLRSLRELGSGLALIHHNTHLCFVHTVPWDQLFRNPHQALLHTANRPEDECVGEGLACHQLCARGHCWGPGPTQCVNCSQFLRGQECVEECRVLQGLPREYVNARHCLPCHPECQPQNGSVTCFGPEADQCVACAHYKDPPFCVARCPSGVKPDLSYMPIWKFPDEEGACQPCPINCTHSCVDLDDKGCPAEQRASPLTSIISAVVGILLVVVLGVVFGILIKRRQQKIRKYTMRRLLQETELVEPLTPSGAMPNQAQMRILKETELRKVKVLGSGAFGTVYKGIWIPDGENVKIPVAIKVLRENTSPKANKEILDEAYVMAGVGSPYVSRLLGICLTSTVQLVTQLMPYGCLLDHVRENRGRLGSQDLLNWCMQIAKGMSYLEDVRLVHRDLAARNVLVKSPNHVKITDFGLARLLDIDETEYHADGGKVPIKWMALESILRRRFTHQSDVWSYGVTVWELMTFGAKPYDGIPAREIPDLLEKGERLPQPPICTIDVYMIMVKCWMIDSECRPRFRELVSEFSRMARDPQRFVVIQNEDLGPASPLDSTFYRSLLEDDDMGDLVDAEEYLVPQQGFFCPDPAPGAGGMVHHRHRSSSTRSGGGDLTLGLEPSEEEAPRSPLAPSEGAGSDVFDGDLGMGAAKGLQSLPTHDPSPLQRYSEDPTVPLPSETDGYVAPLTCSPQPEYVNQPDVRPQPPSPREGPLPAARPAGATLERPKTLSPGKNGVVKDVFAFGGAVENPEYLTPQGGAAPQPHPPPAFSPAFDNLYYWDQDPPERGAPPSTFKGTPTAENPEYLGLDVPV
Assay: Inhibition of erbB2 in NH3T3 cells
Type: cell-based
quantity_measured: IC50 (nM)

1) CNc1cc2c(Nc3ccc(OC4CCN(C(=O)Nc5c(F)cccc5F)CC4)c(C)c3)ncnc2cn1    180
2) Cc1cc(Nc2ncnc3cnc(N4CCN(C)CC4)cc23)ccc1Oc1ccc(C(=O)NCC(C)(C)C)cc1    15
3) COCC(=O)NCC#Cc1ccc2ncnc(Nc3ccc(Oc4ccc(C(=O)NCC(C)(C)C)cc4)c(C)c3)c2c1    23
4) COCC(=O)NCC#Cc1ccc2ncnc(Nc3ccc(OC4CCN(C(=O)c5cccc(Cl)c5)CC4)c(C)c3)c2c1    75
5) COCCOc1cc2ncnc(Nc3ccc(OC4CCN(C(=O)CC(C)(C)C)CC4)c(C)c3)c2cc1OCCOC    530
6) Cc1cc(Nc2ncnc3cnc(NCCN4CCOCC4)cc23)ccc1Oc1ccc(C(=O)NCC(C)(C)C)cc1    15
7) COCCOc1cc2ncnc(Nc3ccc(OC4CCN(C(=O)C5CCCC5)CC4)c(C)c3)c2cc1OCCOC    530

* * *

Target: Receptor tyrosine-protein kinase erbB-2 (Homo sapiens, UniProt P04626)
Experiment: Inhibition of erbB2 in NH3T3 cells
Format: cell-based
quantity_measured: IC50

1. COCC(=O)NCC#Cc1ccc2ncnc(Nc3ccc(Oc4cccc(C(=O)NC(C)(C)C)c4)c(C)c3)c2c1    30 nM
2. COCC(=O)NCC#Cc1ccc2ncnc(Nc3ccc(OC4CCN(C(=O)CC(C)(C)C)CC4)c(C)c3)c2c1    16 nM
3. Cc1cc(Nc2ncnc3cnc(N4CCCC4)cc23)ccc1Oc1ccc(C(=O)NCC(C)(C)C)cc1    < 10 nM
4. COCCOc1cc2ncnc(Nc3ccc(OC4CCN(C(=O)Nc5c(F)cccc5F)CC4)c(C)c3)c2cc1OCCOC    840 nM

* * *

Target: Receptor tyrosine-protein kinase erbB-2 (Homo sapiens, UniProt P04626)
Assay: Inhibition of erbB2 in NH3T3 cells
Assay type: cell-based
quantity_measured: log10 IC50 (log10 of the value in nM)

1) COCCOc1ccc2ncnc(Nc3ccc(OC4CCN(C(=O)C5CCCC5)CC4)c(C)c3)c2c1    1.46
2) Cc1cc(Nc2ncnc3cnc(N4CCOCC4)cc23)ccc1OC1CCN(C(=O)C2CCCC2)CC1    1.52
3) Cc1cc(Nc2ncnc3cnc(N(C)C)cc23)ccc1OC1CCN(C(=O)Nc2c(F)cccc2F)CC1    1.30
4) COCC(=O)NCC#Cc1ccc2ncnc(Nc3ccc(OC4CCN(C(=O)C5CCCO5)CC4)c(C)c3)c2c1 (stereo not drawn)    3.46
5) COc1cc2ncnc(Nc3ccc(OC4CCN(C(=O)Nc5c(F)cccc5F)CC4)c(C)c3)c2cc1OC    1.83
6) COc1cc2ncnc(Nc3ccc(Oc4ccc(C(=O)NCC(C)(C)C)cc4)c(C)c3)c2cc1OC    2.49
7) COCC(=O)NCC#Cc1ccc2ncnc(Nc3ccc(OC4CCN(C(=O)Nc5c(F)cccc5F)CC4)c(C)c3)c2c1    2.28
8) COCC(=O)NCC#Cc1ccc2ncnc(Nc3ccc(Oc4cccc(C(=O)NC5CCC5)c4)c(C)c3)c2c1    2.20

* * *

Biological target: Epidermal growth factor receptor and ErbB2 (HER1 and HER2) (Homo sapiens) (UniProt P04626+P00533)
Assay: Selectivity for erbB2 over EGFR
Type: protein assay
Reported values of Selectivity ratio for individual entries
quantity_measured: Selectivity ratio

1) Cc1cc(Nc2ncnc3cnc(N(C)C)cc23)ccc1Oc1ccc(C(=O)NCC(C)(C)C)cc1    > 770
2) Cc1cc(Nc2ncnc3cnc(N4CCCC4)cc23)ccc1Oc1ccc(C(=O)NCC(C)(C)C)cc1    > 100
3) COCC(=O)NCC#Cc1ccc2ncnc(Nc3ccc(OC4CCN(C(=O)CC(C)(C)C)CC4)c(C)c3)c2c1    400
4) COCCOc1cc2ncnc(Nc3ccc(OC4CCN(C(=O)Nc5c(F)cccc5F)CC4)c(C)c3)c2cc1OCCOC    6.5
5) Cc1cc(Nc2ncnc3cnc(N(C)C)cc23)ccc1OC1CCN(C(=O)CC(C)(C)C)CC1    > 230
6) CNc1cc2c(Nc3ccc(OC4CCN(C(=O)Nc5c(F)cccc5F)CC4)c(C)c3)ncnc2cn1    25
7) COCC(=O)NCC#Cc1ccc2ncnc(Nc3ccc(Oc4cccc(C(=O)NC5CCC5)c4)c(C)c3)c2c1    > 64
8) COCCOc1ccc2ncnc(Nc3ccc(OC4CCN(C(=O)C5CCCC5)CC4)c(C)c3)c2c1    > 350
